Reference source for all entries: ChEMBL document CHEMBL1125363

- target entity: Sigma non-opioid intracellular receptor 1 (Mus musculus)
- Sequence (O55242 whole entry): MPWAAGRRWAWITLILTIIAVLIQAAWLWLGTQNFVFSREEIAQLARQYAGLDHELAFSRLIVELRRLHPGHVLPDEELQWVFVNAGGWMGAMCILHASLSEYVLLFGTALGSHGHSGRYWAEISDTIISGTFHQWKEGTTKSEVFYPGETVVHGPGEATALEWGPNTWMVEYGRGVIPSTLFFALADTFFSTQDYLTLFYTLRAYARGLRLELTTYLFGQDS
- test name: In vitro binding affinity for the mouse sigma opioid receptor
pKi: −log10 of the molar value.
pKi values by entry
observed property: pKi

compound	endpoint value
O=C(CC1CCCCN1Cc1ccccc1)c1ccc(F)cc1.O=C(O)/C=C\C(=O)O (stereo not drawn)	7.43
O.O=[N+]([O-])c1ccc(OCC2CCN(CC3CC3)CC2)cc1	7.89
Cl.OC(CC1CCN(Cc2ccccc2)CC1)c1ccc(F)cc1 (stereo not drawn)	8.10

###

- Species: Mus musculus
- test name: Oral potency tested by using anti-mescaline test
- Type: functional
observed property: log10 ED50 (log10 of the value in mg/kg)

compound	endpoint value
O=C(CC1CCN(CCc2ccc(Cl)cc2)CC1)c1ccc(F)cc1	0.26
Br.O=C(CC1CCN(CC2CC2)CC1)c1ccc(F)cc1	-0.46
Cl.Fc1ccc(OCC2CCN(Cc3ccccc3)CC2)cc1.O	0.60
FC(F)(F)c1ccc(OCC2CCN(Cc3ccccc3)CC2)cc1	0.78
O=C(CC1CCN(CCc2ccccc2)CC1)c1ccc(F)cc1	0.61
Cl.Clc1ccc(OCC2CCN(Cc3ccccc3)CC2)cc1	0.90
N#Cc1ccc(OCC2CCN(CC3CC3)CC2)cc1	0.23
O=C(CC1CCCCN1Cc1ccccc1)c1ccc(F)cc1.O=C(O)/C=C\C(=O)O (stereo unspecified)	0.63
O.c1ccc2c(OCC3CCN(CC4CC4)CC3)ccnc2c1	1.28
O=C(CCCN1CCC(C(=O)Cc2ccc(F)cc2)CC1)c1ccc(F)cc1	0.28
Br.O=C(CC1CCN(CC2CC2)CC1)c1ccc(Cl)cc1	-0.34
OC(CCCN1CCN(c2ncc(F)cn2)CC1)c1ccc(F)cc1 (stereo unspecified)	0.78
Cl.Fc1c(F)c(F)c(OCC2CCN(CC3CC3)CC2)c(F)c1F	1.42
O.O=C(CC1CCN(Cc2ccccc2)CC1)c1ccc(F)cc1.O=C(O)/C=C\C(=O)O	0.68
O=C(CC1CCCN(CC2CC2)C1)c1ccc(F)cc1 (stereo unspecified)	0.11
Cl.Clc1ccc(OCC2CCN(CC3CC3)CC2)cc1Cl	0.52
O.O=[N+]([O-])c1ccc(OCC2CCN(CC3CC3)CC2)cc1	-0.07
Cl.Fc1ccc(OCC2CCN(CCc3ccc(Cl)cc3)CC2)cc1	0.23
